experiment: Evaluation of heat-resistance by calcination of coating of colored alkali-developable photosensitive composition; type: physicochemical; details: coating of colored alkali-developable photosensitive composition on glass substrate
reportedProperty: λmax (nm)

CCOC(=O)/C(C#N)=C/c1ccc(N(CC)CC)cc1 [Comparative Compound No. 1, reference compound]; 430
CCOC(=O)/C(C#N)=C/c1ccc(N(CC)CCCCCCN(CC)c2ccc(/C=C(\C#N)C(=O)OCC)cc2)cc1; 436
CCOC(=O)/C(C#N)=C/c1ccc(N(c2ccccc2)c2ccc(/C=C(\C#N)C(=O)OCC)cc2)cc1; 458
CCOC(=O)/C(C#N)=C/c1ccc(N(c2ccc(/C=C(\C#N)C(=O)OCC)cc2)c2ccc(/C=C(\C#N)C(=O)OCC)cc2)cc1; 452

Cited source: patent US20130296455A1
